The reader will find reported pIC50 values listed item by item below.
test system: K052; assay: cells; type: functional, cell-based; conditions: Homo sapiens;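 note: Read-out from a cell viability assay, IC50 reflecting suppression of K052 cell growth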
Description: SANGER: Inhibition of human K052 cell growth in a cell viability assay.
pIC50: −log10 of the molar value.
attribute-measured: pIC50

compound: O=C(/C=C/c1ccccc1)NC(NC(=S)Nc1cccc2cccnc12)C(Cl)(Cl)Cl (stereo not given)
attribute-measured: pIC50
reading-qualifier: <
numeric-value: 4.80

compound: Cc1ccc(Nc2nccc(N(C)c3ccc4c(C)n(C)nc4c3)n2)cc1S(N)(=O)=O
attribute-measured: pIC50
reading-qualifier: <
numeric-value: 5.10

compound: COC(=O)CNC(=O)C(=O)OC
attribute-measured: pIC50
reading-qualifier: =
numeric-value: 3.77

compound: C[C@]1(O)C[C@@H](c2nc(-c3ccc4ccc(-c5ccccc5)nc4c3)c3c(N)nccn32)C1
attribute-measured: pIC50
reading-qualifier: <
numeric-value: 5.59

compound: Cn1cncc1[C@@](N)(c1ccc(Cl)cc1)c1ccc2c(c1)c(-c1cccc(Cl)c1)cc(=O)n2C
attribute-measured: pIC50
reading-qualifier: =
numeric-value: 4.80

----------
test system: U-87 MG; test: cells; format: functional, cell-based, U-87MG ATCC; conditions: Homo sapiens;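 note: growth inhibition of the cells measured with a viability assay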
Description: SANGER: Inhibition of human U-87-MG cell growth in a cell viability assay.
attribute-measured: IC50

compound: Cn1cc(C2=C(c3ccc(Cl)cc3Cl)C(=O)NC2=O)c2ccccc21
result: > 10 µM

compound: O=c1cc(-c2cccc3c2Sc2ccccc2S3)oc(N2CCOCC2)c1
result: > 10 µM

compound: COc1cc([C@@H]2c3cc4c(cc3[C@@H](O[C@@H]3O[C@@H]5CO[C@@H](C)O[C@H]5[C@H](O)[C@H]3O)[C@H]3COC(=O)[C@H]23)OCO4)cc(OC)c1O [ETOPOSIDE]
result: > 16 µM

compound: CCc1nc(N)nc(N)c1-c1ccc(Cl)cc1
result: > 20 µM

compound: CC(=O)O[C@@]12CO[C@@H]1C[C@H](O)[C@@]1(C)C(=O)[C@H](O)C3=C(C)[C@@H](OC(=O)[C@H](O)[C@@H](NC(=O)OC(C)(C)C)c4ccccc4)C[C@@](O)([C@@H](OC(=O)c4ccccc4)[C@H]21)C3(C)C
result: 0.00355 µM

compound: CN(c1ncccc1CNc1nc(Nc2ccc3c(c2)CC(=O)N3)ncc1C(F)(F)F)S(C)(=O)=O
result: > 2.56 µM

----------
test system: KU812 cell line; test: cells; assay type: functional, cell-based; conditions: Homo sapiens;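 note: growth inhibition of KU812 cells, read out with a cell viability assay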
Description: SANGER: Inhibition of human KU812 cell growth in a cell viability assay.
pIC50: −log10 of the molar value.
The reader will find reported pIC50 values listed item by item below.

compound: C=C1C(=O)O[C@@H]2C3O[C@]3(C)CC/C=C(\C)CC[C@@H]12 (some centres undefined)
pIC50: < 5.30
//
compound: COc1ccc(C2=N[C@@H](c3ccc(Cl)cc3)[C@@H](c3ccc(Cl)cc3)N2C(=O)N2CCNC(=O)C2)c(OC(C)C)c1
pIC50: < 5.10
//
compound: O=C(c1cc(Cc2n[nH]c(=O)c3ccccc23)ccc1F)N1CCN(C(=O)C2CC2)CC1
pIC50: < 5.30
//
compound: CCc1nc(N)nc(N)c1-c1ccc(Cl)cc1
pIC50: 4.81
//
compound: CNC(=O)c1cc(Oc2ccc(NC(=O)Nc3ccc(Cl)c(C(F)(F)F)c3)cc2)ccn1
pIC50: < 5.40
//
compound: CO[C@H]1C[C@@H]2CC[C@@H](C)[C@@](O)(O2)C(=O)C(=O)N2CCCC[C@H]2C(=O)O[C@H]([C@H](C)C[C@@H]2CC[C@@H](O)[C@H](OC)C2)CC(=O)[C@H](C)/C=C(\C)[C@@H](O)[C@@H](OC)C(=O)[C@H](C)C[C@H](C)/C=C/C=C/C=C/1C
pIC50: 8.70
//
compound: CS(=O)(=O)CCNCc1ccc(-c2ccc3ncnc(Nc4ccc(OCc5cccc(F)c5)c(Cl)c4)c3c2)o1
pIC50: < 5.70
//
compound: O=C(NOCC1CC1)c1ccc(F)c(F)c1Nc1ccc(I)cc1Cl
pIC50: 6.34
//
compound: C[C@@]1(C(=O)Nc2ccc(F)nc2)CCCN1c1nc(Nc2cc(C3CC3)n[nH]2)c2cccn2n1
pIC50: < 5.59

----------
tested on: HSC-2; experiment: cells; assay type: functional, cell-based, Homo sapiens; conditions: hsc-2
Description: SANGER: Inhibition of human HSC-2 cell growth in a cell viability assay.
pIC50: −log10 of the molar value.

compound: Cc1cc([C@@H](C)Nc2ccccc2C(=O)O)c2nc(N3CCOCC3)cc(=O)n2c1 [AZD-6482]
study-system: HSC-2;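 note: growth inhibition of human HSC-2 cells, read out by a cell viability assay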
pIC50: 5.94

----------
The reader will find reported IC50 values listed item by item below.
tested on: RPMI-8866; assay: cells; format: functional, cell-based; conditions: Homo sapiens
Description: SANGER: Inhibition of human RPMI-8866 cell growth in a cell viability assay.
attribute-measured: IC50

molecule: CC1=C2C[C@H]3[C@@H](CC=C4C[C@@H](O)CC[C@@]43C)[C@@H]2CC[C@]12O[C@@H]1C[C@H](C)CN[C@H]1[C@H]2C [CYCLOPAMINE]
study-system: RPMI-8866
result: > 16 µM
--
molecule: O=C1N=C(NCc2cccs2)S/C1=C\c1ccc2ncccc2c1
study-system: RPMI-8866
result: > 5 µM
--
molecule: C=CCc1cccc(/C=N/NC(=O)CN2CCN(Cc3ccccc3)CC2)c1O [PAC-1]
study-system: RPMI-8866
result: > 2.56 µM
--
molecule: CCOc1nc(NC(=O)Cc2cc(OC)ccc2OC)cc(N)c1C#N
study-system: RPMI-8866
result: > 10 µM
--
molecule: COc1ccc(-c2ccc3c(N4CCOC[C@@H]4C)nc(N4CCOC[C@@H]4C)nc3n2)cc1CO [AZD-8055]
study-system: RPMI-8866
result: 0.858 µM

----------
tested on: MMAC-SF; experiment: cells; assay type: functional, cell-based, Homo sapiens; conditions: Homo sapiens, MMAC-SF
Description: SANGER: Inhibition of human MMAC-SF cell growth in a cell viability assay.
The reader will find reported IC50 values listed item by item below.

compound: CC1=C2C[C@H]3[C@@H](CC=C4C[C@@H](O)CC[C@@]43C)[C@@H]2CC[C@]12O[C@@H]1C[C@H](C)CN[C@H]1[C@H]2C [CYCLOPAMINE]
IC50: > 16 µM
--
compound: O=C(/C=C/c1ccccc1)NC(NC(=S)Nc1cccc2cccnc12)C(Cl)(Cl)Cl (stereo not given) [SALUBRINAL]
IC50: > 16 µM
--
compound: Cc1ccc(Nc2nccc(N(C)c3ccc4c(C)n(C)nc4c3)n2)cc1S(N)(=O)=O [PAZOPANIB]
IC50: > 8 µM
--
compound: Cc1cnc(-c2cnc(NCCNc3ccc(C#N)cn3)nc2-c2ccc(Cl)cc2Cl)[nH]1 [LADUVIGLUSIB]
IC50: > 2.56 µM
--
compound: Cn1cc(C2=C(c3ccc(Cl)cc3Cl)C(=O)NC2=O)c2ccccc21 [SB-216763]
IC50: > 10 µM

----------
tested on: DMS-53; assay: cells; assay type: functional, cell-based, Homo sapiens; details: dms-53;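 note: cell viability assay measuring growth inhibition of human DMS-53 cells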
Description: SANGER: Inhibition of human DMS-53 cell growth in a cell viability assay.
attribute-measured: IC50

compound: Cc1cc([C@@H](C)Nc2ccccc2C(=O)O)c2nc(N3CCOCC3)cc(=O)n2c1 [AZD-6482]
attribute-measured: IC50
result: > 5.12 µM

----------
system: HCC2218; assay: cells; type: functional, cell-based; conditions: Homo sapiens
Description: SANGER: Inhibition of human HCC2218 cell growth in a cell viability assay.
attribute-measured: IC50 (µM)

compound: COc1cc(F)c(F)c(Nc2ccc(I)cc2F)c1NS(=O)(=O)C1(CC(O)CO)CC1 (configuration not stated)
study-system: HCC2218
reading-qualifier: >
numeric-value: 5

compound: COc1ccc(C2=N[C@@H](c3ccc(Cl)cc3)[C@@H](c3ccc(Cl)cc3)N2C(=O)N2CCNC(=O)C2)c(OC(C)C)c1
study-system: HCC2218
reading-qualifier: =
numeric-value: 7.63

compound: CO[C@H]1C[C@@H]2CC[C@@H](C)[C@@](O)(O2)C(=O)C(=O)N2CCCC[C@H]2C(=O)O[C@H]([C@H](C)C[C@@H]2CC[C@@H](O)[C@H](OC)C2)CC(=O)[C@H](C)/C=C(\C)[C@@H](O)[C@@H](OC)C(=O)[C@H](C)C[C@H](C)/C=C/C=C/C=C/1C
study-system: HCC2218
reading-qualifier: >
numeric-value: 0.1

compound: CCc1nc(N)nc(N)c1-c1ccc(Cl)cc1
study-system: HCC2218
reading-qualifier: >
numeric-value: 20

compound: Cc1cnc(-c2cnc(NCCNc3ccc(C#N)cn3)nc2-c2ccc(Cl)cc2Cl)[nH]1
study-system: HCC2218
reading-qualifier: >
numeric-value: 2.56

compound: CN(C)C/C=C/C(=O)Nc1cc2c(Nc3ccc(F)c(Cl)c3)ncnc2cc1O[C@H]1CCOC1
study-system: HCC2218
reading-qualifier: =
numeric-value: 0.00987

compound: CCC1=C[C@@H]2CN(C1)Cc1c([nH]c3ccccc13)[C@@](C(=O)OC)(c1cc3c(cc1OC)N(C)[C@H]1[C@@](O)(C(=O)OC)[C@H](OC(C)=O)[C@]4(CC)C=CCN5CC[C@]31[C@@H]54)C2
study-system: HCC2218;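 note: cell viability assay read-out, with IC50 given as the concentration that inhibits growth of the cell line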
reading-qualifier: =
numeric-value: 0.0571

Numbers sourced from ChEMBL document CHEMBL1201861.
